- measurement_target: T1, hPD-1-Fc (human, UniProt Q15116 25-167)
- T1 construct: domain: IgV domain; also called human PD-1-Fc; not shown: human IgG1 Fc
- T1 sequence (Q15116 25-167 limits assumed): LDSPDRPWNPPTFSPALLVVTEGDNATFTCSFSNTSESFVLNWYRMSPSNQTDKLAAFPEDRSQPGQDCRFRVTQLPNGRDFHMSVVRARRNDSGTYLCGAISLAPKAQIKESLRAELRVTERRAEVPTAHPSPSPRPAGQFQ
- method_description: blocking ELISA, hPD-1-Fc to hPD-L1-Fc
measurement_kind: Inhibition % (3.3 nM) (%)
Kindly provide the numeric value in % only, without the unit symbol.

Name the recorded Inhibition % (3.3 nM) for 24H9 (antibody, human IgG1, V domains shown) VH: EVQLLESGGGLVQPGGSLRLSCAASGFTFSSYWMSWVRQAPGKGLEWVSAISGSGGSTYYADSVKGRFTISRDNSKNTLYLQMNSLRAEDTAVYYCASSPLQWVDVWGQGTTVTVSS VL: DIQMTQSPSSLSASVGDRVTITCRASQGISSWLAWYQQKPGKAPKLLIYSASSLQSGVPSRFSGSGSGTDFTLTISSLQPEDFATYYCQQANSFPFTFGPGTKVDIK .
70

Next up: 19B6 (antibody, V domains shown) VH: QVQLVQSGAEVKKPGASVKVSCKASGYTFTGYYMHWVRQAPGQGLEWMGIINPSGGSTSYAQKFQGRVTMTRDTSTSTVYMELSSLRSEDTAVYYCAKTAGYDWLPSGLGMDVWGQGTTVTVSS VL: DIQMTQSPSSLSASVGDRVTITCRASQSINSWLAWYQQKPGKAPKLLIYYASSLQSGVPSRFSGSGSGTDFTLTISSLQPEDFATYYCQQGYSVPLSFGQGTKLEIK
51.9

Now try 23A8 (antibody, human IgG1, V domains shown) VH: EVQLLESGGGLVQPGGSLRLSCAASGFTFSSSAMHWVRQAPGKGLEWVSGISGSGSSTYYADSVKGRFTISRDNSKNTLYLQMNSLRAEDTAVYYCARDNNYYYYMDVWGKGTTVTVSS VL: DIQMTQSPSSLSASVGDRVTITCRASQSIGTWLAWYQQKPGKAPKLLIYAASTLRSGVPSRFSGSGSGTDFTLTISSLQPEDFATYYCQQSYSTPYTFGQGTKLEIK .
80.5

Continue with 23A11 (antibody, human IgG1, V domains shown) VH: QVQLVQSGAEVKKPGSSVKVSCKASGYTFTDYSLHWVRQAPGQGLEWMGEVIPMFDTAYYAQTFQGRVTITADESTSTAYMELSSLRSEDTAVYYCAREPFTMVRGGRYYYYGMDVWGQGTTVTVSS VL: DIQMTQSPSSLSASVGDRVTITCRASQNINKNLNWYQQKPGKAPKLLIYDASNLQSGVPSRFSGSGSGTDFTLTISSLQPEDFATYYCQHSETFGQGTKVEIK
54.9
